Tested on: NCI-H1355
protocol: relative viability (nuclei count vs DMSO), 5 days (fraction); higher = more cells survive
details: first compound 0.8 µM
observation.type: relative viability

- Oc1nc(-c2ccc(C(F)(F)F)cc2)nc2c1CSCC2 [XAV939] + Cc1cc(Nc2cc(N3CCN(C)CC3)nc(Sc3ccc(NC(=O)C4CC4)cc3)n2)n[nH]1 [Tozasertib] (partner 0.1 µM): 0.548
- Oc1nc(-c2ccc(C(F)(F)F)cc2)nc2c1CSCC2 [XAV939] + CC(C)C[C@H](NC(=O)[C@H](Cc1ccccc1)NC(=O)c1cnccn1)B(O)O [Bortezomib] (partner 0.002 µM): 1.21
- C=C1C(=O)O[C@@H](CCCCCCCC)[C@@H]1C(=O)O [C-75] + CC(=O)c1c(C)c2cnc(Nc3ccc(N4CCNCC4)cn3)nc2n(C2CCCC2)c1=O [Palbociclib] (partner 0.5 µM): 0.428
- C=C1C(=O)O[C@@H](CCCCCCCC)[C@@H]1C(=O)O [C-75] + CCNC(=O)c1noc(-c2cc(C(C)C)c(O)cc2O)c1-c1ccc(CN2CCOCC2)cc1 [Luminespib] (partner 0.01 µM): 0.641
